assayed target: human PPARγ (Homo sapiens, UniProt P37231)
Sequence (P37231 238-503 limits assumed): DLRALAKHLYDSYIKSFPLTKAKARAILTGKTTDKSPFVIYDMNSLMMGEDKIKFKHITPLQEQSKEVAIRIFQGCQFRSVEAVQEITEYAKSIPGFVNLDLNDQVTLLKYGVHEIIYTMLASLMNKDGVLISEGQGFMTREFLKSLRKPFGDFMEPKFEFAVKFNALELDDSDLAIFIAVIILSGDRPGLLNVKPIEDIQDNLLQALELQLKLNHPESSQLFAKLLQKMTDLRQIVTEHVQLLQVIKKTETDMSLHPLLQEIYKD
procedure summary: PPARγ activation test (GAL-4/luciferase reporter in NIH/3T3 cell)
applied conditions: luciferase activity, 24 hrs incubation
pEC50: −log10 of the molar value.
Classify as follows. Reported pEC50 greater than or equal to 7: Met. Reported pEC50 below: Not met.

Example results:
{"molecule": "CCOC(=O)C1=C(c2ccccc2)c2ccc(OC)cc2C1OC (stereo not shown)", "group": "Met"}
{"molecule": "CCOC(=O)C1=C(c2ccccc2)c2ccc(OC)cc2C1(O)C1CCCCC1 (stereo not shown)", "group": "Met"}

Query :: Reported pEC50 at or above 7? CCOC(=O)C1=C(c2ccccc2)c2ccc(OC)cc2C1NC(C)=O (stereo not shown)
Result :: Met

Query :: Lookup CCOC(=O)C1=C(c2ccccc2)c2ccc(OC)cc2C1(C)O (stereo not shown)
Result :: Not met

Query :: Lookup CCOC(=O)C1=C(c2ccccc2)c2ccc(OC)cc2C1OCC (stereo not shown)
Result :: Met

---

assayed target: human PPARγ (Homo sapiens)
procedure summary: PPARγ activation test (GAL-4/luciferase reporter in NIH/3T3 cell)
applied conditions: luciferase activity, 24 hrs incubation
// classify: if (EC50 < 40 nM) class 1 else class 0

Example results:
{"molecule": "CCOC(=O)C1=C(c2ccccc2)c2ccc(OC)cc2C1(O)Cc1ccccc1 (centres unmarked) [Compound 5]", "group": "class 0"}
{"molecule": "CCOC(=O)C1=C(c2ccccc2)c2ccc(OC)cc2C1NC1CCCCC1 (centres unmarked) [Compound 32]", "group": "class 0"}

Query :: Is it true that EC50 reported for CCOC(=O)C1=C(c2ccccc2)c2ccc(OCCCc3ccccc3)cc2C1(O)c1ccccc1 (centres unmarked) [Compound 7] is less than 40 nM?
Result :: class 1

Query :: Lookup CCOC(=O)C1=C(c2ccccc2)c2ccc(OCCc3ccccn3)cc2C1(O)c1ccccc1 (centres unmarked) [Compound 10]
Result :: class 0

Query :: Lookup COc1ccc2c(c1)C(O)(Cc1ccccc1)C(C(=O)O)=C2c1ccccc1 (centres unmarked) [Compound 15]
Result :: class 0

Query :: Lookup CCOC(=O)C1=C(c2ccccc2)c2ccc(OC)cc2C1(O)C(C)C (centres unmarked) [Compound 3]
Result :: class 0

Query :: Lookup CCOC(=O)C1=C(c2ccccc2)c2ccc(OC)cc2C1NC(=O)CC (centres unmarked) [Compound 25]
Result :: class 1
